- TARGET_OR_TEST_SYSTEM: IKKε (Homo sapiens, UniProt Q14164)
- Construct: purchased Invitrogen PR8031B
- EXPERIMENTAL_DETAILS: IKKε inhibition, ADP-Glo Kinase Assay
- Assay type: biochemical
- CONDITION_DESCRIPTION: luminometer
Answer each item with its documented IC50.
Answers are plain numbers, in µM.

{"COMPOUND": "CC1CN(c2ccc(C(=O)Nc3n[nH]c4ccc(C(=O)NCc5cccs5)cc34)cc2)CC(C)N1 (centres unmarked) [Example 89, 2,2,2-trifluoroacetate]", "IC50 / µM": 0.079}
{"COMPOUND": "CC(C)CC(NC(=O)c1ccc2[nH]nc(NC(=O)c3ccc(N4CCN(C)CC4)cc3)c2c1)c1cccs1 (centres unmarked)", "IC50 / µM": 0.054}
{"COMPOUND": "CN1CCN(c2ccc(C(=O)Nc3n[nH]c4ccc(C(=O)NC(c5cccs5)C5CC5)cc34)cc2)CC1 (centres unmarked)", "IC50 / µM": 0.037}
{"COMPOUND": "COc1ccc(C(=O)Nc2n[nH]c3ccc(C(=O)NCc4ccco4)cc23)cc1", "IC50 / µM": 0.13}
{"COMPOUND": "CN1CCN(c2ccc(C(=O)Nc3n[nH]c4ccc(C(=O)NCc5cscn5)cc34)cc2)CC1", "IC50 / µM": 0.54}

Batch lookup, IC50 per entry.
1. O=C(NCc1cccs1)c1ccc2[nH]nc(NC(=O)c3ccc(C4=CCNCC4)cc3)c2c1
2. CC(NC(=O)c1ccc2[nH]nc(NC(=O)c3ccc(N4CCOCC4)cc3)c2c1)c1ccccn1 (centres unmarked)

0.14
0.14

----------
- TARGET_OR_TEST_SYSTEM: IKKε (Homo sapiens)
- Construct: purchased Invitrogen PR8031B
- Sequence (Q14164 1-716): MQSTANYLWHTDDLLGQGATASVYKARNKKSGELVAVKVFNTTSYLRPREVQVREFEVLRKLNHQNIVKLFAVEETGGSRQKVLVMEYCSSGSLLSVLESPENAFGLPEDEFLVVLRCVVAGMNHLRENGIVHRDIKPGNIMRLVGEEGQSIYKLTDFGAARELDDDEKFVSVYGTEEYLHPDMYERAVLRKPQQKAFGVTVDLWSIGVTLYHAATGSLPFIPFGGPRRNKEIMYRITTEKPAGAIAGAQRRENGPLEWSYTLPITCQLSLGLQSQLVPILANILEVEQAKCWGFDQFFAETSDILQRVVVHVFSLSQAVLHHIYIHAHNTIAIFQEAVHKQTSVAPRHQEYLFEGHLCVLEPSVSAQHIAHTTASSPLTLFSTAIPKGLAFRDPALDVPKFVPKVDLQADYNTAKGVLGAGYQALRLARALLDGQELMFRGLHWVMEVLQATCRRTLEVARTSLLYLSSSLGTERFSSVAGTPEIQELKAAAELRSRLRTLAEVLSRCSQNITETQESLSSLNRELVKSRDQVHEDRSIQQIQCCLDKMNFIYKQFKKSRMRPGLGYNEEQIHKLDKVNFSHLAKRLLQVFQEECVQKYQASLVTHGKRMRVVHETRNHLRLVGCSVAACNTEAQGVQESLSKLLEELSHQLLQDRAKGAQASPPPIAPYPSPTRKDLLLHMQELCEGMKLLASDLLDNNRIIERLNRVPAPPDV
- EXPERIMENTAL_DETAILS: IKKε inhibition, ADP-Glo Kinase Assay
- Assay type: biochemical
- CONDITION_DESCRIPTION: luminometer
Answer each item with its documented IC50.
Give bare numbers, in µM.

{"COMPOUND": "Cc1noc(CNC(=O)c2ccc3[nH]nc(NC(=O)c4ccc(N5CCN(C)CC5)cc4)c3c2)n1 [Example 101, 2,2,2-trifluoroacetate]", "DISPLAY_UNIT": "µM", "RESULT": 0.96}

Batch lookup, IC50 per entry.
1. O=C(NCc1ccco1)c1ccc2[nH]nc(NC(=O)c3ccc(N4CCOCC4)cc3)c2c1
2. O=C(Nc1n[nH]c2ccc(C(=O)NC(c3cccs3)C3CC3)cc12)c1ccc(N2CCOCC2)cc1 (stereo not shown)
3. CN1CCN(c2ccc(C(=O)Nc3n[nH]c4ccc(C(=O)NCc5nccs5)cc34)cc2)CC1 [Example 103, 2,2,2-trifluoroacetate]
4. CC(NC(=O)c1ccc2[nH]nc(NC(=O)c3ccc(N4CCN(C)CC4)cc3)c2c1)c1ccco1 (stereo not shown)
5. O=C(NCc1cccs1)c1ccc2[nH]nc(NC(=O)c3ccc(NCCN4CCOCC4)cc3)c2c1

1. 0.037
2. 0.025
3. 0.44
4. 0.021
5. 0.037
